Source: ChEMBL document CHEMBL5137088

experiment: Volume of distribution at steady state in Sprague-Dawley rat at 2 mg/kg, iv measured upto 12 hrs by LC-MS/MS analysis; assay type: ADME, organism-based; settings: in vivo, read-out: Vdss

{"Structure smiles string": "CCC(CC)O[C@@H]1C=C(C(=O)O)C[C@H](NCc2ccc(-c3cccs3)cc2OC)[C@H]1NC(C)=O", "Vd, L/kg": 0.191}
{"Structure smiles string": "CCC(CC)O[C@@H]1C=C(C(=O)O)C[C@H](NCc2ccc(-c3ccsc3)cc2OC)[C@H]1NC(C)=O", "Vd, L/kg": 0.179}

###

// endpoint IC50 / system Cytochrome P450 3A4 (Homo sapiens)

{"Structure smiles string": "CCC(CC)O[C@@H]1C=C(C(=O)O)C[C@H](NCc2ccc(-c3ccsc3)cc2OC)[C@H]1NC(C)=O", "Reading qualifier": ">", "IC50 (µM)": 100}
{"Structure smiles string": "CCC(CC)O[C@@H]1C=C(C(=O)O)C[C@H](NCc2ccc(-c3ccsc3)cc2Cl)[C@H]1NC(C)=O", "Reading qualifier": "=", "IC50 (µM)": 72.5}
{"Structure smiles string": "CCC(CC)O[C@@H]1C=C(C(=O)O)C[C@H](NCc2ccc(-c3cccs3)cc2Cl)[C@H]1NC(C)=O", "Reading qualifier": ">", "IC50 (µM)": 100}
{"Structure smiles string": "CCC(CC)O[C@@H]1C=C(C(=O)O)C[C@H](NCc2ccc(-c3cccs3)cc2OC)[C@H]1NC(C)=O", "Reading qualifier": "=", "IC50 (µM)": 87.6}
{"Structure smiles string": "CCC(CC)O[C@@H]1C=C(C(=O)O)C[C@H](NCc2ccc(-c3cccs3)cc2C)[C@H]1NC(C)=O", "Reading qualifier": ">", "IC50 (µM)": 100}

###

Target: Cytochrome P450 1A2 (Homo sapiens, UniProt P05177)
Sequence (P05177 whole entry): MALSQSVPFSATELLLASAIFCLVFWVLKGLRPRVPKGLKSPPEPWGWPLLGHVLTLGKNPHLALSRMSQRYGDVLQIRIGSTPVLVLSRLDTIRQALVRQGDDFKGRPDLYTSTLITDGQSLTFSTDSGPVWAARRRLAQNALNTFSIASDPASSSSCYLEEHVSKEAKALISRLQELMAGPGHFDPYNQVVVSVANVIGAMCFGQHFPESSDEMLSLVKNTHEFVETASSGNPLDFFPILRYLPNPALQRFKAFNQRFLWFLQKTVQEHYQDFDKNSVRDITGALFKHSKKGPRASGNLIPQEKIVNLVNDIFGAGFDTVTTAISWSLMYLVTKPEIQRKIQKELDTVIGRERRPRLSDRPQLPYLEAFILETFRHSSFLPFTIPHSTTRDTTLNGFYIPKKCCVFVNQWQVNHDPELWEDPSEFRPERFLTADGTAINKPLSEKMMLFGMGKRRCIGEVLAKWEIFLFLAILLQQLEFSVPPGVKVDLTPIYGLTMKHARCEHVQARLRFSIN
IC50 vs 20 µM: less than gives true (1); not less than gives false (0).

{"Structure smiles string": "CCC(CC)O[C@@H]1C=C(C(=O)O)C[C@H](NCc2ccc(-c3ccsc3)cc2OC)[C@H]1NC(C)=O", "Group label": "false (0)"}
{"Structure smiles string": "CCC(CC)O[C@@H]1C=C(C(=O)O)C[C@H](NCc2ccc(-c3cccs3)cc2OC)[C@H]1NC(C)=O", "Group label": "false (0)"}
{"Structure smiles string": "CCC(CC)O[C@@H]1C=C(C(=O)O)C[C@H](NCc2ccc(-c3cccs3)cc2Cl)[C@H]1NC(C)=O", "Group label": "true (1)"}
{"Structure smiles string": "CCC(CC)O[C@@H]1C=C(C(=O)O)C[C@H](NCc2ccc(-c3ccsc3)cc2Cl)[C@H]1NC(C)=O", "Group label": "true (1)"}

###

target: Cytochrome P450 2D6 (Homo sapiens, UniProt P10635)
Sequence (P10635 whole entry): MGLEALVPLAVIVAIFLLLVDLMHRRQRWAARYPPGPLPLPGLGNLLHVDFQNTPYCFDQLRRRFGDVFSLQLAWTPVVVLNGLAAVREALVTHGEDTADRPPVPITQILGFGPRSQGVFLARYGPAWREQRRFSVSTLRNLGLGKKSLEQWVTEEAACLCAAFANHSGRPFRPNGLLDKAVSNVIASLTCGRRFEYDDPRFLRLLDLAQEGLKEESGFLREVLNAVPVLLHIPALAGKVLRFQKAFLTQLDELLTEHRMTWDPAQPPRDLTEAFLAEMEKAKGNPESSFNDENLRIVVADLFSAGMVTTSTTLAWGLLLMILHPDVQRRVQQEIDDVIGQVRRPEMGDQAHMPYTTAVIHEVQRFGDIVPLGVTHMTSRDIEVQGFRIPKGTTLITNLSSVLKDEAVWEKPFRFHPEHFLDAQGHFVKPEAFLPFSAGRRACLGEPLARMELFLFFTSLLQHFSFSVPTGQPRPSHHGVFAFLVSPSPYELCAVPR

{"Structure smiles string": "CCC(CC)O[C@@H]1C=C(C(=O)O)C[C@H](NCc2ccc(-c3cccs3)cc2C)[C@H]1NC(C)=O", "IC50": "> 100 µM"}
{"Structure smiles string": "CCC(CC)O[C@@H]1C=C(C(=O)O)C[C@H](NCc2ccc(-c3cccs3)cc2OC)[C@H]1NC(C)=O", "IC50": "> 100 µM"}
{"Structure smiles string": "CCC(CC)O[C@@H]1C=C(C(=O)O)C[C@H](NCc2ccc(-c3ccsc3)cc2Cl)[C@H]1NC(C)=O", "IC50": "> 100 µM"}
{"Structure smiles string": "CCC(CC)O[C@@H]1C=C(C(=O)O)C[C@H](NCc2ccc(-c3cccs3)cc2Cl)[C@H]1NC(C)=O", "IC50": "> 100 µM"}
{"Structure smiles string": "CCC(CC)O[C@@H]1C=C(C(=O)O)C[C@H](NCc2ccc(-c3ccsc3)cc2OC)[C@H]1NC(C)=O", "IC50": "> 100 µM"}

###

biological target: Cytochrome P450 2C9 (Homo sapiens, UniProt P11712)
Sequence (P11712 whole entry): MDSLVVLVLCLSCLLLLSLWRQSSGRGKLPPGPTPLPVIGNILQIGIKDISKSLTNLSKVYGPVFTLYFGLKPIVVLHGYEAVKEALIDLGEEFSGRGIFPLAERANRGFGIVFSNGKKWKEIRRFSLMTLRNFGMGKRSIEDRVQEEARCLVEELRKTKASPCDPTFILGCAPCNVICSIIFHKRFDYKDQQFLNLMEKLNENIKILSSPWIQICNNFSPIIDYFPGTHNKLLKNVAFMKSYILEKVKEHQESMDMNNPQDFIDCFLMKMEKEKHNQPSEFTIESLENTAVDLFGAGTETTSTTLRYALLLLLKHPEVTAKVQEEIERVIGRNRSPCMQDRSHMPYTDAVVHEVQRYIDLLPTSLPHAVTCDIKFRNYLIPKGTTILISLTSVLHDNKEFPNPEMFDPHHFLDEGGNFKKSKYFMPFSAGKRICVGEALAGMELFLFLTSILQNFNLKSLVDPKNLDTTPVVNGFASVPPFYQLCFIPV
IC50 vs 40 µM: less than gives Y; not less than gives N.

{"Structure smiles string": "CCC(CC)O[C@@H]1C=C(C(=O)O)C[C@H](NCc2ccc(-c3ccsc3)cc2Cl)[C@H]1NC(C)=O", "Group label": "Y"}
{"Structure smiles string": "CCC(CC)O[C@@H]1C=C(C(=O)O)C[C@H](NCc2ccc(-c3cccs3)cc2C)[C@H]1NC(C)=O", "Group label": "N"}
{"Structure smiles string": "CCC(CC)O[C@@H]1C=C(C(=O)O)C[C@H](NCc2ccc(-c3cccs3)cc2OC)[C@H]1NC(C)=O", "Group label": "N"}
{"Structure smiles string": "CCC(CC)O[C@@H]1C=C(C(=O)O)C[C@H](NCc2ccc(-c3cccs3)cc2Cl)[C@H]1NC(C)=O", "Group label": "N"}
{"Structure smiles string": "CCC(CC)O[C@@H]1C=C(C(=O)O)C[C@H](NCc2ccc(-c3ccsc3)cc2OC)[C@H]1NC(C)=O", "Group label": "N"}

###

This section presents compounds with their documented CLint scaled at 2 h values.
experiment: in vitro; settings: human, human liver (fraction not stated)

{"Compound": "CCC(CC)O[C@@H]1C=C(C(=O)O)C[C@H](NCc2ccc(-c3cccs3)cc2OC)[C@H]1NC(C)=O", "Endpoint unit": "mL/min/kg", "Reading qualifier": "=", "CLint scaled at 2 h": 10.4}
{"Compound": "O=C(O)Cc1ccccc1Nc1c(Cl)cccc1Cl", "Endpoint unit": "mL/min/kg", "Reading qualifier": "=", "CLint scaled at 2 h": 225}
{"Compound": "CCC(CC)O[C@@H]1C=C(C(=O)O)C[C@H](N)[C@H]1NC(C)=O [OSELTAMIVIR CARBOXYLATE]", "Endpoint unit": "mL/min/kg", "Reading qualifier": "=", "CLint scaled at 2 h": 28}
{"Compound": "CCC(CC)O[C@@H]1C=C(C(=O)O)C[C@H](NCc2ccc(-c3ccsc3)cc2OC)[C@H]1NC(C)=O", "Endpoint unit": "mL/min/kg", "Reading qualifier": "<", "CLint scaled at 2 h": 8.6}
{"Compound": "CCC(CC)O[C@@H]1C=C(C(=O)O)C[C@H](NCc2ccc(-c3cccs3)cc2Cl)[C@H]1NC(C)=O", "Endpoint unit": "mL/min/kg", "Reading qualifier": "<", "CLint scaled at 2 h": 8.6}
{"Compound": "CCC(CC)O[C@@H]1C=C(C(=O)O)C[C@H](NCc2ccc(-c3ccsc3)cc2O)[C@H]1NC(C)=O", "Endpoint unit": "mL/min/kg", "Reading qualifier": "=", "CLint scaled at 2 h": 17.2}
{"Compound": "C[C@]12CC[C@H]3[C@@H](CCC4=CC(=O)CC[C@@]43C)[C@@H]1CC[C@@H]2O", "Endpoint unit": "mL/min/kg", "Reading qualifier": "=", "CLint scaled at 2 h": 89.7}
{"Compound": "CCC(CC)O[C@@H]1C=C(C(=O)O)C[C@H](NCc2ccc(-c3cccs3)cc2C)[C@H]1NC(C)=O", "Endpoint unit": "mL/min/kg", "Reading qualifier": "=", "CLint scaled at 2 h": 10.2}
{"Compound": "CCC(CC)O[C@@H]1C=C(C(=O)O)C[C@H](NCc2ccc(-c3ccsc3)cc2Cl)[C@H]1NC(C)=O", "Endpoint unit": "mL/min/kg", "Reading qualifier": "<", "CLint scaled at 2 h": 8.6}

###

test: Half-life in Sprague-Dawley rat at 2 mg/kg, iv measured upto 12 hrs by LC-MS/MS analysis; format: ADME, organism-based; details: in vivo
This section presents compounds with their documented half-life values.

{"Structure smiles string": "CCC(CC)O[C@@H]1C=C(C(=O)O)C[C@H](NCc2ccc(-c3cccs3)cc2OC)[C@H]1NC(C)=O", "half-life": "12.8 min"}
{"Structure smiles string": "CCC(CC)O[C@@H]1C=C(C(=O)O)C[C@H](NCc2ccc(-c3ccsc3)cc2OC)[C@H]1NC(C)=O", "half-life": "12.8 min"}
